Values compiled from paper PMC10119177.

B1: recombinant CEACAM1 N-terminal domain with His tag (rCEACAM1-N-HIS), wildtype [human] / IgI3 domain of R28 (R28-IgI3), wildtype [Streptococcus pyogenes] (parent complex)
chain 1: AQLTTESMPFNVAEGKEVLLLVHNLPQQLFGYSWYKGERVDGNRQIVGYAIGTQQATPGPANSGRETIYPNASLLIQNVTQNDTGFYTLQVIKSDLVNEEATGQFHVY
chain 2: TAPTLTVTPEQQTVKVDEDITFTVTVEDENEVELGLDDLKAKYENDIIGARVKIKYLTKEPNKKVMEVTIMKATLADKGAITFTAKDKAGNQAEPKTVTINVLPLKDSNEPKLPSTGGS

- Variants of: B1
- TEST: Dynabead binding assay (Dynabeads coated with R28-IgI3, DB.R28IgI3, incubated with rCC1-N); parent: 33; read off a plot
REPORTED ENDPOINT: response

Query string: Field request: response | item: chain 2 TAPTLTVTPEQQTVKVDEDITFTVTVEDENEVELGLDDLAAKYENDIIGARVKIKYLTKEPNKKVMEVTIMKATLADKGAITFTAKDKAGNQAEPKTVTINVLPLKDSNEPKLPSTGGS [chain 2 K40A]
Result string: ~7

Query string: Field request: response | item: chain 2 TAPTLTVTPEQQTVKVDEDITFTVTVEDENEVELGLDDLKAKYENDIIGARVKIKYLTAEPNKKVMEVTIMKATLADKGAITFTAKDKAGNQAEPKTVTINVLPLKDSNEPKLPSTGGS [chain 2 K59A]
Result string: ~21

Query string: Field request: response | item: chain 2 TAPTLTVTPEQQTVKVDEDITFTVTVEDENEVELGLDDLKAKYENDIAGARVKIKYLTKEPNKKVMEVTIMKATLADKGAITFTAKDKAGNQAEPKTVTINVLPLKDSNEPKLPSTGGS [chain 2 I48A]
Result string: ~5.5

Query string: Field request: response | item: chain 2 TAPTLTVTPEQQTVKVDEDITFTVTVEDENEVELGLDDLKAKYENDIIGARVKIKALTKEPNKKVMEVTIMKATLADKGAITFTAKDKAGNQAEPKTVTINVLPLKDSNEPKLPSTGGS [chain 2 Y56A]
Result string: ~7

Query string: Field request: response | item: chain 2 TAPTLTVTPEQQTVKVDEDITFTVTVEDENEVELGLDDLKAKYANDIIGARVKIKYLTKEPNKKVMEVTIMKATLADKGAITFTAKDKAGNQAEPKTVTINVLPLKDSNEPKLPSTGGS [chain 2 E44A]
Result string: ~40

Query string: Field request: response | item: chain 2 TAPTLTVTPEQQTVKVDEDITFTVTVEDENEVELGLDDLKAKYENDIIGARVKAKYLTKEPNKKVMEVTIMKATLADKGAITFTAKDKAGNQAEPKTVTINVLPLKDSNEPKLPSTGGS [chain 2 I54A]
Result string: ~19

Query string: Field request: response | item: chain 2 TAPTLTVTPEQQTVKVDEDITFTVTVEDENEVELGLDDLKAKYENDAIGARVKIKYLTKEPNKKVMEVTIMKATLADKGAITFTAKDKAGNQAEPKTVTINVLPLKDSNEPKLPSTGGS [chain 2 I47A]
Result string: ~5.5
